# TARGET_DESC: UniProt P19327
# Sequence (P19327 whole entry): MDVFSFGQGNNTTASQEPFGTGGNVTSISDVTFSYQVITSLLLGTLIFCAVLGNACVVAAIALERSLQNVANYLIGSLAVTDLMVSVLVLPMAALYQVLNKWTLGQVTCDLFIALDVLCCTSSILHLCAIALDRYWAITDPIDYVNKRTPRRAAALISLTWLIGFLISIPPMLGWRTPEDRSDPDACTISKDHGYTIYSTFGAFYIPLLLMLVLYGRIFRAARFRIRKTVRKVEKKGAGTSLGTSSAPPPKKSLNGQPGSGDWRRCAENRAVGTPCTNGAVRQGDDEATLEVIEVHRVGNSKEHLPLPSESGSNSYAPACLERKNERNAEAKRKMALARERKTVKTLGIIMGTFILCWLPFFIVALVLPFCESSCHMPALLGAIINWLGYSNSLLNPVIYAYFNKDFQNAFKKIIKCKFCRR
# Assay type: cell membranes, CHO-K1, Membrane
# RUN_PARAMETERS: read-out: Ki
Okay, here is how we bin by Ki: class 1 = under 200 nM, class 2 = from 200 nM up to 1000 nM, class 3 = 1000 nM and over

>>> df
                                   compound  group_label
0  COc1ccc(CCN2CCC(Nc3nc4ccccc4n3Cc3ccc(F)cc3)CC2)cc1 [ASTEMIZOLE]      class 2
1  Clc1ccccc1C(c1ccccc1)(c1ccccc1)n1ccnc1 [CLOTRIMAZOLE]      class 3
2  CC(CCc1ccccc1)NCC(O)c1ccc(O)c(C(N)=O)c1 (stereo not given) [LABETALOL]      class 2
3  Cc1ccccc1N1CCN(CCc2nnc3n2CCCC3)CC1 [DAPIPRAZOLE]      class 3
4  CSc1ccc2c(c1)N(CCC1CCCCN1C)c1ccccc1S2 (stereo not given) [THIORIDAZINE]      class 1
5  Oc1c(Cl)cc(Cl)cc1Sc1cc(Cl)cc(Cl)c1O [BITHIONOL]      class 3
6  CNCCC=C1c2ccccc2CCc2ccccc21 [NORTRIPTYLINE]      class 3
7         CC(C)NC[C@H](O)COc1cccc2[nH]ccc12      class 1
8  CN1C[C@H](C(=O)N[C@]2(C)O[C@@]3(O)[C@@H]4CCCN4C(=O)[C@H](Cc4ccccc4)N3C2=O)C=C2c3cccc4[nH]cc(c34)C[C@H]21 [ERGOTAMINE]      class 1
9  CN1CCN2c3ccccc3Cc3ccccc3C2C1 (stereo not given) [MIANSERIN]      class 2
